Value source: PubChem BioAssay (NCI)

Each record here notes measured TGI.
Test system: NCI/ADR-RES ovarian
Method: NCI tumour cell line growth inhibition, 48 h

These recorded examples may help you get a feel for the data.
* CCN(CC)C(=O)Cn1c(-c2ccccc2)cc2ccccc21 | > 100 µM
* CCOC1=NC(C(F)(F)F)(C(F)(F)F)N=C(N2CCOCC2)O1 | > 100 µM

# evaluate next
Param request: TGI | system NCI/ADR-RES ovarian | item O=c1[nH]nc(Cc2ccc(Cl)cc2)n1/N=C/c1ccco1
> 100 µM

----------
Each record here notes measured GI50.
System: SW-620 colon
Method: NCI tumour cell line growth inhibition, 48 h

- CCOC(=O)c1ccccc1OC(=O)NNc1ccccc1: 12.4 µM
- COc1ccc(/C=C(/C(=O)N2CCN(c3ccccc3)CC2)c2cc(OC)c(OC)c(OC)c2)cc1N: 0.401 µM
- Cc1cc(Nc2ccc(OCc3ccccc3)cc2)nc2cc(O)ccc12: 5.12 µM
- COc1cc2nccc(Oc3ccc(NC(=O)NC4CC4)c(Cl)c3)c2cc1C(N)=O: 97.5 µM

# evaluate next
Param request: GI50 | system SW-620 colon | item CN1CCC(COc2cnc(-c3cccc(Cn4nc(-c5cccc(C#N)c5)ccc4=O)c3)nc2)CC1
3.55 µM

----------
Each record here notes measured TGI.
System: MALME-3M melanoma
Method: NCI tumour cell line growth inhibition, 48 h

These recorded examples may help you get a feel for the data.
• NC(=S)N/N=C/c1nccc2ccccc12 = 0.476 µM
• CC(=O)OC(CN1CCN(c2ccccn2)CC1)Cn1sc2nc(C)cc(C)c2c1=O (stereo not drawn) = 32.6 µM

# evaluate next
Indicate its recorded TGI; the compound in question is O=C(c1ccco1)c1nc2cc(C(F)(F)F)ccc2nc1C(F)(F)F
> 100 µM

----------
Test system: IGROV1 ovarian
Method: NCI tumour cell line growth inhibition, 48 h
Each record here notes measured TGI.

• Oc1ccc2c(c1)CCc1c-2n(CCN2CCOCC2)c2ccc(O)cc12 = 60.9 µM
• Cc1c(O)c2ccccc2oc1=O = > 100 µM
• CCCCCCCCOCC(O)COC(C)C (stereo not drawn) = > 100 µM
• COc1cccc(CCC2CCCN(c3cc(C)nc(N)n3)C2)c1 (stereo not drawn) = 12.8 µM
• CN(C)c1ccc(/C=C/C(=O)[O-])cc1.CN(C)c1ccc(/C=C/C(=O)[O-])cc1.[Cu+2] = > 100 µM

Indicate its recorded TGI; the molecule in question is O=[N+]([O-])c1ccc(-c2cc(O)c3nc4ccccc4n3c2)cc1
> 100 µM

----------
Tested on: SF-268 CNS
Method: NCI tumour cell line growth inhibition, 48 h
Each record here notes measured TGI.

These recorded examples may help you get a feel for the data.
- CC1(C)N=C(N)N=C(N)N1c1ccc(CCCCc2ccccc2)c(Cl)c1: 13.7 µM
- CO/C=C/C(=O)c1cc2cnc3c(=N)cc(NC(=O)C(C)C)c([nH]1)c23: 0.918 µM
- O=C1C(C(O)(C(F)(F)Cl)C(F)(F)Cl)CCCC1C(O)(C(F)(F)Cl)C(F)(F)Cl (centres undefined): > 10 µM
- COc1ccccc1C1C(Cl)C(=O)N1n1cnc2ccccc2c1=O (centres undefined): > 100 µM
- C=C=C(C(=O)OC)S(=O)c1ccccc1[N+](=O)[O-] (centres undefined): > 100 µM
- Cc1[nH]c(=O)nc2c1C(NCCCN(C)C)c1cc(Cl)ccc1N2 (centres undefined): 30.5 µM
- FC(F)(F)c1ccc(Cc2nc3cc4ccccc4cc3[nH]2)cc1: > 100 µM
- O=[N+]([O-])c1ccc(C2CC(c3ccccc3Cl)=Nc3ccccc3S2)cc1 (centres undefined): 18.9 µM

Indicate its recorded TGI; the compound in question is CC1=Nc2ccccc2NC(c2ccoc2)C1 (centres undefined)
> 100 µM

Indicate its recorded TGI; the compound in question is Nc1ccccc1Nc1ccccc1C(=O)[O-].Nc1ccccc1Nc1ccccc1C(=O)[O-].[Zn+2]
> 100 µM

Indicate its recorded TGI; the compound in question is O=[N+]([O-])c1ccc2nc(Cl)n[n+]([O-])c2c1
30.7 µM

Indicate its recorded TGI; the compound in question is Cc1cc(=O)[nH]c(N/N=C/c2cc(Br)ccc2O)n1
> 100 µM

Indicate its recorded TGI; the compound in question is O=C1c2[nH]cc(CNC3CN4CCC3CC4)c2C(=O)c2c1c(O)c1ccccc1c2O (centres undefined)
68.4 µM

Indicate its recorded TGI; the compound in question is Cc1nc2c(c(=O)[nH]1)S/C(=C(/C#N)c1nc3ccccc3[nH]1)N2c1ccccc1
> 100 µM

Indicate its recorded TGI; the compound in question is Nc1c(C(=O)c2ccc(-c3cccnc3)cc2)cnn1-c1ccc(F)cc1
> 25 µM

Indicate its recorded TGI; the compound in question is CN(C)CCCC1c2ccccc2Oc2ccc(C(F)(F)F)cc21 (centres undefined)
28.5 µM

Indicate its recorded TGI; the compound in question is N.N.NCCCCCN.O=C([O-])CCl.O=C([O-])CCl.O=C([O-])CCl.O=C([O-])CCl.[Pt+4].[Pt+4]
36.8 µM

Indicate its recorded TGI; the compound in question is C=C1CC2CCCC12C=O (centres undefined)
> 10 µM

Indicate its recorded TGI; the compound in question is Cc1ccc(NC(=O)c2ccc(CN3CCN(C)CC3)cc2)cc1Nc1nccc(-c2cccnc2)n1
71 µM

----------
Tested on: COLO 205 colon
Method: NCI tumour cell line growth inhibition, 48 h; in the data active = GI50 below about 0.43 µM; inactive = the rest
Could you please pick one outcome from this set? 1 (active), -1 (inactive)

Use these answered entries as a reference point.
* CN1CCC(COc2cnc(-c3cccc(Cn4nc(-c5cccc(C#N)c5)ccc4=O)c3)nc2)CC1 | -1
* O=C1/C(=C\c2ccc(F)cc2)CN(C(=O)c2ccccc2)C/C1=C\c1ccc(F)cc1 | -1
* CO/C=C/C(=O)c1cc2cnc3c(=N)cc(NC(=O)C(C)C)c([nH]1)c23 | 1
* C[C@]12CCc3nc(Nc4cccc(O)c4)sc3C1=CC[C@@H]1[C@@H]2CC[C@]2(C)/C(=N\NC(N)=S)CC[C@@H]12 | -1

Kindly provide the recorded test outcome for the following compound: Cc1ccc(Cl)cc1Nc1nc(C(F)(F)F)ccc1C(=O)N/N=C/c1cccnc1
-1

----------
System: LOX IMVI melanoma
Method: NCI tumour cell line growth inhibition, 48 h; in the data active means GI50 below about 0.43 µM; inactive means the rest
Could you please pick one outcome from this set? 1.0 = active, 0.0 = inactive

Use these answered entries as a reference point.
* Cc1cccc(-c2[nH]ncc2-c2ccc3ncccc3n2)n1 | 0.0
* CC1(C)N=C(N)N=C(N)N1c1ccc(CCCCc2ccccc2)c(Cl)c1 | 1.0
* CCOC(=O)c1ccccc1OC(=O)NNc1ccccc1 | 0.0

Kindly provide the recorded test outcome for the following molecule: COc1cccc(CCC2CCCN(c3cc(C)nc(N)n3)C2)c1 (stereo not drawn)
0.0

Kindly provide the recorded test outcome for the following molecule: COc1cc2nccc(Oc3ccc(NC(=O)NC4CC4)c(Cl)c3)c2cc1C(N)=O
0.0

Kindly provide the recorded test outcome for the following molecule: C[n+]1c(/C=C/c2c[nH]c3ccccc23)ccc2ccccc21
0.0

Kindly provide the recorded test outcome for the following molecule: CCCCCCCC/C=C/CCCCCCCC1=NC(C)(C)CN1CC(C)O (stereo not drawn)
0.0

Kindly provide the recorded test outcome for the following molecule: C=CCC(N[C@@H](CO)c1ccccc1)c1cn(Cc2ccccc2Cl)c(=O)n(Cc2ccccc2Cl)c1=O (stereo partly drawn)
0.0

Kindly provide the recorded test outcome for the following molecule: Nc1c(C(=O)c2ccc(-c3cccnc3)cc2)cnn1-c1ccc(F)cc1
0.0

Kindly provide the recorded test outcome for the following molecule: Cn1cc(C2=C(c3ccccc3[N+](=O)[O-])C(=O)NC2=O)c2ccccc21
0.0

Kindly provide the recorded test outcome for the following molecule: c1ccc([CH2][Sn]([CH2]c2ccccc2)([O]c2cccc3cccnc23)[O]c2cccc3cccnc23)cc1
0.0

Kindly provide the recorded test outcome for the following molecule: CSc1ccc(-c2ccccc(=O)c2O)cc1
1.0

Kindly provide the recorded test outcome for the following molecule: NS(=O)(=O)OCC1OC(n2cnc3cncnc32)C(O)C1O (stereo not drawn)
1.0

----------
Each record here notes measured TGI.
Tested on: NCI-H522 lung
Method: NCI tumour cell line growth inhibition, 48 h

These recorded examples may help you get a feel for the data.
* Cc1ccc(S(=O)(=O)CN2C(=O)C(c3ccccc3)(c3ccccc3)C23OC(c2ccc(Cl)cc2)=CC3=O)cc1 (configuration not stated) | > 10 µM
* Cc1cc(Nc2ccc(OCc3ccccc3)cc2)nc2cc(O)ccc12 | 12.1 µM
* CC1(C)CC(=O)C(/C=N/C(N)=S)=C(O)C1 | > 100 µM
* COc1ccc(/C=N/NC(=O)c2sc(=S)n(-c3ccccc3)c2N)cc1 | > 100 µM
* Cc1cc(Cl)cc2c(N=Nc3ccc(S(N)(=O)=O)cc3)c(O)[nH]c12 | > 25 µM
* CC1(C)N=C(N)N=C(N)N1c1ccc(CCCCc2ccccc2)c(Cl)c1 | 1.83 µM

# evaluate next
Indicate its recorded TGI; the compound in question is O=C(CC(CC(=O)Oc1c(Br)cc(Br)cc1C(=O)O)C(=O)Oc1c(Br)cc(Br)cc1C(=O)O)Oc1c(Br)cc(Br)cc1C(=O)O
55.4 µM
